ASSAYED_TARGET: Induced myeloid leukemia cell differentiation protein Mcl-1 (Homo sapiens) (UniProt Q07820)
Sequence (Q07820 whole entry, looked up): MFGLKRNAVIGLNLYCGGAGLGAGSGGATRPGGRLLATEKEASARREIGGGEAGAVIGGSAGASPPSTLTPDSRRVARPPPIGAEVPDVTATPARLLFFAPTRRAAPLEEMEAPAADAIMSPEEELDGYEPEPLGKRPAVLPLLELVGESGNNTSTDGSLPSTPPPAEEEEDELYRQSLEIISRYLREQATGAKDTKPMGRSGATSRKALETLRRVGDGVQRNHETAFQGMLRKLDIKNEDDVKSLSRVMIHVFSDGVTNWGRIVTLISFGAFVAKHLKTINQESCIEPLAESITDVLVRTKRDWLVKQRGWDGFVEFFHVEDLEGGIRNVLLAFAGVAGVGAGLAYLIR
MEASUREMENT_PROTOCOL: disruptors of Mcl-1 and Bid BH3 peptide – biochemical, TR-FRET, 1536-well, primary screen (AID 1021);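 note: His-tagged Mcl-1 with europium anti-His antibody binding Bid BH3 peptide; 0% = Mcl-1 plus peptide wells and 100% = peptide-only wells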
APPLIED_CONDITIONS: TR-FRET Mcl-1/Bid-Dy647 peptide binding, at 21.7 µM, active compounds read high
Hit rate of the full screen: of about 220,000 compounds, about 2,100 (0.95%) were called active. The entries come from a sample that favours actives as a whole.
REPORTED_METRIC: inhibition (%)
Answers are plain numbers, in %.

For orientation, consider the following solved cases.
O=C(CN1CCCC1)N1CCN(c2ccccc2)CC1 = -53.9
CC(=O)c1ccc(NC(=O)C(C)NCc2ccc(Cl)cc2)cc1 (configuration not stated) = 3.24
Cc1ccccc1-c1nnc(SCC(=O)NCc2ccc3c(c2)OCO3)n1C = -9.98
O=C(N/N=C/c1ccc([N+](=O)[O-])o1)c1cn(-c2ccccc2)nc1-c1ccc(F)cc1 = 25.7
Cc1cc(N2CCN(c3ccccc3)CC2)nc(N2CCOCC2)n1 = -98.4

Count: 6. Required value per item: inhibition.
1. CN(C)CCCO/N=C(\c1ccccc1)c1ccncc1
2. O=C(O/N=C(/c1ccccc1)c1ccncc1)c1ccccc1[N+](=O)[O-]
3. Cc1ccc(C)c(SCc2nc3sc(C(=O)O)c(C)c3c(=O)[nH]2)c1
4. Cc1cc(/C=C2/C(=N)N3C(=NC2=O)SN=C3S(C)(=O)=O)c(C)n1-c1ccccc1
5. O=C(C1CCCO1)N(c1ccc(F)cc1)C1C=CS(=O)(=O)C1 (configuration not stated)
6. CCOC(=O)/C(C#N)=C/c1cn(CCC(=O)O)nc1-c1ccc(Br)cc1

Reply |
1. 54.2
2. -11.8
3. -24.1
4. -35.9
5. -15.9
6. 39.2

Please go through the list and note inhibition for each molecule.
1. OCC1(Cc2ccccc2C(F)(F)F)CCN(Cc2cccc3cnccc23)CC1
2. CCOc1ccc(NC(=O)c2cc(C)nc3ccccc23)cc1
3. O=C(O)/C=C/c1cn(Cc2ccccc2)nc1-c1cccs1
4. COc1ccccc1C(=O)NNC(=O)c1ccc(NC(=O)c2ccccc2)cc1
5. CCn1c(COc2ccccc2)nnc1SCC(=O)NCc1ccco1

Reply |
[-14.6, -4.96, -0.35, -23.3, -25.4]

Give inhibition for each of the items listed below.
1. Cc1ccc2nc(-c3cccc(Br)c3)cc(C(=O)Nn3cnnc3)c2c1
2. Cn1c(SCc2nc3ccccc3s2)nnc1-c1ccc2c(c1)OCO2

Reply |
[-15.1, 85.9]

Below are some molecules; for each one, tell me its inhibition.
1. O=C(O)CCn1cc(/C=C/C(=O)c2ccc(Cl)cc2)c(-c2cccc(Br)c2)n1
2. Cc1ccc(-c2cc(C(=O)NCc3cn(C)nc3C)c3cc(Br)ccc3n2)cc1

Reply |
1: 69.2; 2: 57.4

Consider the following items and state reported inhibition for each.
1. COc1cc(OC)nc(N/N=C(\c2ccccc2)c2ccncc2)n1
2. COc1ccc(Cl)cc1C(=O)NCc1cn(C)nc1C

Reply |
1: 1.66; 2: -17.2

---

ASSAYED_TARGET: Induced myeloid leukemia cell differentiation protein Mcl-1 (Homo sapiens)
MEASUREMENT_PROTOCOL: disruptors of Mcl-1 and Bid BH3 peptide – biochemical, TR-FRET, 1536-well, primary screen (AID 1021);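 note: His-tagged Mcl-1 with europium anti-His antibody binding Bid BH3 peptide; 0% = Mcl-1 plus peptide wells and 100% = peptide-only wells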
APPLIED_CONDITIONS: TR-FRET Mcl-1/Bid-Dy647 peptide binding, at 21.7 µM
About 2,100 (0.95%) of roughly 220,000 compounds were called active.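 How the source made its calls: active means compounds that cut the binding signal by more than half at the single screening dose; inactive means the rest.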 The sample holds actives, similar compounds and a random draw of the others, so the mix is not that of the screen.
The categories you may choose from are 1 = active, 0 = inactive

See these solved cases before continuing.
O=S(=O)(/N=C(/Nc1ccccn1)c1ccccc1)c1ccc(Cl)cc1 = 0
O=S(=O)(c1ccccc1)N(CC(O)CN1CCCCC1)c1ccccc1 (stereo unspecified) = 0
Cc1ccc(S(=O)(=O)c2ccc(Cl)cc2)cc1S(=O)(=O)NC(C(=O)O)C(C)C (stereo unspecified) = 0

Ask | What did the test return for `COc1ccc2c(c1)C(C)=CC(C)(C)N2C(=O)Nc1ccccc1` ?
Reply | 0

Ask | Please do the same for `COc1ccc2c(c1)C(C)=CC(C)(C)N2C(=O)CNCc1ccc2c(c1)OCO2` as well.
Reply | 1

Ask | Also `CN(C)/C(CN1CCCCC1)=C1\N=C(c2ccccc2)OC1=O` ?
Reply | 1
